# target: T1, sEGFR-MMB (dimeric sEGFR mimetibody) (human)
# T1 construct: Disulfide-linked homodimer: QIQ, sEGFR, flexible linker, J segment, human IgG1 hinge, CH2, CH3; also called sEGFR-Fc; dimeric EGFR
# T1 sequence (chain, as listed by the source limits assumed): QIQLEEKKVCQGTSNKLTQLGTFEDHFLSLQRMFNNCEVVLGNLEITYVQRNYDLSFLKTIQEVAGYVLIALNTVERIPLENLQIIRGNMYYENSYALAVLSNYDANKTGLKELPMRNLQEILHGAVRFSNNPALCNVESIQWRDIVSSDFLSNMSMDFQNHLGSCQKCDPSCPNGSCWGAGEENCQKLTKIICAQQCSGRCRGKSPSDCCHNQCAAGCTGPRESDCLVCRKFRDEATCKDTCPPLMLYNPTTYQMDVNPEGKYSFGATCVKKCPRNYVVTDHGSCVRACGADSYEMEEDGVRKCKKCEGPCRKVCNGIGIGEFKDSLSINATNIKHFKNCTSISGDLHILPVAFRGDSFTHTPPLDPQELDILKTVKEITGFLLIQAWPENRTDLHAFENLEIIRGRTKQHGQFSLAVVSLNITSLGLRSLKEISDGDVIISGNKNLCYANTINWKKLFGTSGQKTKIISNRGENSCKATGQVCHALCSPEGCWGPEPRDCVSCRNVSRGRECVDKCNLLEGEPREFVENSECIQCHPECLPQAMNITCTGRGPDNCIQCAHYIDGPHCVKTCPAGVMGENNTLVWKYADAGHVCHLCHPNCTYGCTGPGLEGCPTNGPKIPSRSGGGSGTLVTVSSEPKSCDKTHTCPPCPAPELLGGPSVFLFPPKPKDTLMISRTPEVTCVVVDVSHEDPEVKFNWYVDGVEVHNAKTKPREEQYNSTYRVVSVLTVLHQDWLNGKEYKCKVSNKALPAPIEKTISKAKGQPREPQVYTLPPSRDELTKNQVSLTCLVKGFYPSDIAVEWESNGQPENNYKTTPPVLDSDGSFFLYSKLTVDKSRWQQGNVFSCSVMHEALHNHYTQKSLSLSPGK
# test-description: phage ELISA on coated sEGFR-MMB, chemiluminescence (background typically <200 units)
Mark Condition met for ELISA under 6000 units, Condition not met if at or over.

binder="GGGSDCVLFGSKLFCSAGGGSGGSGG (pIX phagemid display, library S18; not shown: M13 phage coat protein pIX (MSVL...)) [phage clone displaying SEQ ID NO: 32 (S18 hit)]" answer_label="Condition not met"
binder="GGGTDCIRFGVLWYCLVGGGSGGSGG (pIX phagemid display, library S18; not shown: M13 phage coat protein pIX (MSVL...)) [phage clone displaying SEQ ID NO: 28 (S18 hit)]" answer_label="Condition met"
binder="GGGYDCVSFGAVAYCPQGGGSGGSGG (pIX phagemid display, library S18; not shown: M13 phage coat protein pIX (MSVL...)) [phage clone displaying SEQ ID NO: 34 (S18 hit)]" answer_label="Condition met"
binder="GGGAGCIAFVDVVYCARGGGSGGSGG (pIX phagemid display, library S18; not shown: M13 phage coat protein pIX (MSVL...)) [phage clone displaying SEQ ID NO: 23 (S18 hit)]" answer_label="Condition not met"
binder="GGGAKCIAFGNSVYCLNGGGSGGSGG (pIX phagemid display, library S18; not shown: M13 phage coat protein pIX (MSVL...)) [phage clone displaying SEQ ID NO: 24 (S18 hit)]" answer_label="Condition not met"
binder="GGGRGCVVFGDNIYCIVGGGSGGSGG (pIX phagemid display, library S18; not shown: M13 phage coat protein pIX (MSVL...)) [phage clone displaying SEQ ID NO: 35 (S18 hit)]" answer_label="Condition not met"
binder="GGGTDCVRFGETIYCIVGGGSGGSGG (pIX phagemid display, library S18; not shown: M13 phage coat protein pIX (MSVL...)) [phage clone displaying SEQ ID NO: 33 (S18 hit)]" answer_label="Condition not met"
